tested on: GII.13 (norovirus GII.13)
assay comment: ELISA
measured parameter: pEC50
Give only the number. pEC50 is defined as minus log10 of concentration in molar units.

Find the recorded pEC50 belonging to 279A (antibody, V domains shown) VH: QVQLVESGGGVVQPGRSLRLSCAASGFTFTKYGMHWVRQAPGKGLEWVAFIAYDGSVKYYGDSAKGRFAISRDNPKNTVYLQMNSLRAEDTAVYYCAKVEIHYYSNSLLGMDVWGQGTLVTVSS VL: QSVLTQPPSASGTPGQRVTISCSGGNSNIGISYVYWYQHLPGTAPKLLISKNNLRPSGVPDRFSASKSGTSASLAISGLRSEDEAEYYCATLDINMTWVFGGGTKLTVL and report it.
8.00

Return reported pEC50; argument: 168.2 (antibody, V domains shown) VH: QVQLVESGGGVVQPGRSLRLSCAASGFTFSSYAMHWVRQAPGKGLEWVAVISYDGSNKYYADSVKGRFTISRDNSKNTLYLQMNSLRAEDTAVYYCARSVIGYYYYGMDVWGQGTLVTVSS VL: QPVLTQPPSASASLGASVTLTCTLSSGYSNYKVDWYQQRPGKGPRFVMRVGTGGIVGSKGDGIPDRFSVLGSGLNRYLTIKNIQEEDESDYHCGADHGSGILFGGGTKLTVL
6.97

Query (binder): 178.6 (antibody, V domains shown) VH: QVQLVESGGGVVQPGRSLRLSCAASGFTFSTYGMNWVRQAPGRGLEWVADISYDGSNSRYADSVKGRFTISRDNSKNTLSLQMNGLRTEDTAVYYCAKDWYLAMAGAAFDSWGPGTLVTVSS VL: SSELTQDPVVSVALGQTVRITCQGDSLTTFYASWFQQKPGQAPALVLYGNDNRPSGIPDRFSGSRSGNTASLTITGAQAEDEADYYCNSRDSSGKPSFGGGTKLTVL ; field requested: pEC50
7.74

So what does the record say about pEC50 for 156.3 (antibody, V domains shown) VH: QVQLQQWGAGLLKPSETLSLTCAVYGGSFSGYYWSWIRQPPGKGLEWIGEINHSGSTNYNPSLKSRVTISVDTSKNQFSLKLSSVTAADTAVYYCARGLMDVWGQGTLVTVSS VL: AIRMTQSPSSFSASTGDRVTITCRASQGISSYLAWYQQKPGKAPKLLIYAASTLQSGVPSRFSGSGSGTDFTLTISCLQSEDFATYYCQQYYSYPRTFGQGTKLEIK ?
7.27

For the binder shown here, 310A (antibody, V domains shown) VH: EVQLVESGGGLVRPGESLRLSCVASGFSVSDNYMSWVRQAPGKGLQWVSVIYSGGTTFYTDSVKGRFTISRDKSKNTLFLQMNSLRAEDTAVYFCTRDPSQYYDSRGHYYQTFTPSFDSWGQGTLVTVSS VL: DIQMTQSPSVMSASVGDRVTITCRASQDISDYLAWFQQKPGKVPKRLIYAASSLQNGVPSRFSGSGSGTEFTLTISSLQPEDFATYYCLQHDTYPLTFGGGTKVEIK , give the reported pEC50.
7.28

If you can, please state the reported pEC50 value of 232A.2 (antibody, V domains shown) VH: QVQLKQWGAGLLKSSETLSLTCAFNGNSFGAFYWSWIRLSPGKGLEWIGEVNYLGGADYNPSLKSRVTMSADTSKRQFSLSLKSVTAADTGVYFCARGRPHDYSPGSYSRPRRYYGLDVWGQGTTVTVSS VL: EIVLTQSPATLSLSPGDSATLSCRASQAVSTTYLAWYQQTRGQAPRLLIHGTYTRAIGIPDKFSGTGSGTDFTLTISGLAPEDFAVYYCQQYSSSPYTFGQGTKIEIT .
8.70
